The reported measurements were obtained from patent US9969726B2.

- measured-target: rat mGlu3 receptor (Rattus norvegicus (Rat))
- Sequence (P31422 23-879): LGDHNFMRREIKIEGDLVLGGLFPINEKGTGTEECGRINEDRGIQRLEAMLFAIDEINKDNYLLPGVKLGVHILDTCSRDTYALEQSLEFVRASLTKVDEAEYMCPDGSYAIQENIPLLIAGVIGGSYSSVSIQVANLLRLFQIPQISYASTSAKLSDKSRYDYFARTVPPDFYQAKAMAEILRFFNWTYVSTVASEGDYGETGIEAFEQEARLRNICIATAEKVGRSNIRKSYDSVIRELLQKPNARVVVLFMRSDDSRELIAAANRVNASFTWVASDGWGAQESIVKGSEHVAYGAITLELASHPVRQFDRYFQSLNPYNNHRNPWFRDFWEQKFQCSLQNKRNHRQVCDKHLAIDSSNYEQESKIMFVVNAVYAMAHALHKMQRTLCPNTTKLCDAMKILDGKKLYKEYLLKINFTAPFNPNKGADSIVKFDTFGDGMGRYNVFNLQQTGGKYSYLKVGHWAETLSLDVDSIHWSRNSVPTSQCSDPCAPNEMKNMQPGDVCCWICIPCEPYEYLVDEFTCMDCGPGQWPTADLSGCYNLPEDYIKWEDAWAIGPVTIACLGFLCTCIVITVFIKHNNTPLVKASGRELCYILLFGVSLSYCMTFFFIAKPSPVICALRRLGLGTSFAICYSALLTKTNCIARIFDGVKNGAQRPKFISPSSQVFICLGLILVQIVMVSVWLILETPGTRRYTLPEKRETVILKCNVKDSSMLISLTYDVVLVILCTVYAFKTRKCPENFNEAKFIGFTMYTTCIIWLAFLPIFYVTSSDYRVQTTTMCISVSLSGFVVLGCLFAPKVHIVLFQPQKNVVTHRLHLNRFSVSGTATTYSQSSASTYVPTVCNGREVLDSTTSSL
- assay-notes: mGlu3 in vitro GIRK thallium flux assay
- Assay type: cell-based
- condition-details: NAM; 2.5 min compound incubation; EC80 glutamate; HEK-293 GIRK cells
- Experimental: All cell culture reagents were purchased from Invitrogen Corp. (Carlsbad, Calif.) unless otherwise noted. Compound activity at the group II (mGlu2 and mGlu3) mGlus was assessed using thallium flux through GIRK channels. […] Cell plates and compound plates were loaded onto a kinetic imaging plate reader (FDSS 6000 or 7000; Hamamatsu Corporation, Bridgewater, N.J.). […] Data were analyzed using Excel (Microsoft Corp, Redmond, Wash.). […]
# key: entry, value: EC50
Supply the numeric figure in µM, leaving out any unit text.

structure-as-smiles	measured-attribute	assay-result
Cc1cc(-c2ccoc2)nc(-c2cccc(-c3cccc(C(=O)O)c3)c2)n1	EC50	0.35

Next, consider the following compound.
Write down the reported EC50 (system: rat mGlu3 receptor (Rattus norvegicus (Rat))) of O=C(O)c1cc(-c2cccc(-c3csc(-c4cc5ccccc5o4)n3)c2)ccc1F 3.32
